Measured melting point accompanies every entry in the list below.

Solved entries (count: 8):
O=C(Nc1ccc2c(c1)CCC(CN1CCCC1)=C2)c1ccc(-c2ccccc2)nc1 [Example 153]
186 to 187 °C
CCOC(=O)c1ccc(-c2ccc(C(=O)Nc3ccc4c(c3)CCC(CN(C)C)C4)cc2)cc1 (stereo not drawn) [Example 35]
156 to 158 °C
CN(C)CC1CCc2cc(NC(=O)c3ccc(-c4ccc(C=O)cc4)cc3)ccc2C1 (stereo not drawn) [Example 20]
130 to 132 °C
CN(C)CC1CCc2cc(NC(=O)c3ccc(-c4ccc(N)cc4)cc3)ccc2C1 (stereo not drawn) [Example 33]
148 to 150 °C
Cl.O=C(Nc1ccc(CC2CCCNC2)cc1)c1ccc(-c2ccccc2)cc1 (stereo not drawn)
218 to 220 °C (dec.)
Cc1ccc(C2CCN(C(=O)Nc3ccc4c(c3)CCC(CN3CCCC3)=C4)CC2)cc1 [Example 155]
197 to 198 °C
Cc1cc(-c2ccncc2)c(C(=O)Nc2ccc(CC(=O)NCCN(C)C)cc2)[nH]1 [Example 197]
215 to 218 °C (dec.)
O=C(Nc1ccc2c(c1)CCC(CN1CCCC1)=C2)c1ccc(-c2ccc(F)cc2F)cc1 [Example 103]
165 to 167 °C

Recorded melting point for CN(C)CC1CCc2cc(NC(=O)c3ccc(-c4ccc(Cl)cc4)cc3)ccc2C1 (stereo not drawn) [Example 12] , please? 187 to 189 °C

Item under review: N#CC1=C(CN2CCCC2)CCc2cc(NC(=O)c3ccc(-c4ccccc4)cc3)ccc21 [Example 118] . Reported melting point? 168 to 170 °C

Which melting point is reported for this compound? CN(C)CC1=Cc2ccc(NC(=O)c3ccc(-c4ccccc4)cc3)cc2CC1 [Example 47] 173 to 175 °C

Field request: melting point | item: Cc1cc(Br)ccc1C(=O)Nc1ccc2c(c1)CCC(CN(C)C)C2 (stereo not drawn) [Example 24] 140 to 142 °C

So what does the record say about melting point for CN(C)CC1CCc2cc(NC(=O)c3ccc4c(c3)S(=O)(=O)c3ccccc3C4=O)ccc2C1 (stereo not drawn) [Example 7] ? 222 to 223 °C (dec.)

Entry O=C(Nc1ccc2c(c1)CCC(CN1CCCCC1)C2)C1CC(=O)N(c2ccccc2)C1 (stereo not drawn) [Example 56] : reported melting point = ? 162 to 164 °C

melting point lookup needed for CN(C)CC1COc2ccc(NC(=O)c3ccc(-c4ccccc4)cc3)cc2O1 (stereo not drawn) [Example 104] , thanks. 124 to 126 °C

# input compound: COc1ccc2[nH]c(C)c(CC(=O)Nc3ccc(CC(=O)NCCN(C)C)cc3)c2c1 [Example 188] ; wanted: its melting point 125 to 126 °C

Return reported melting point; argument: CN(C)CC1CCc2cc(NC(=O)c3cccc(-c4ccccc4)c3)ccc2C1 (stereo not drawn) [Example 120] 145 to 148 °C

Looking for the measured melting point of O=C(NCCN1CCCC1)c1ccc(NC(=O)c2ccc(-c3ccccc3)cc2)cc1 [compound 23] , can you help? 241 to 245 °C (dec.)

src = patent US7115750B1
